# Target or system: Raf1 (c-Raf) (Homo sapiens)
# Construct: Sf9 insect cell lysate containing full length 6 his-tagged recombinant human c—Raf; 6His; E. coli (GST-MEK1, GST-MAPK)
# Sequence (P04049 whole entry): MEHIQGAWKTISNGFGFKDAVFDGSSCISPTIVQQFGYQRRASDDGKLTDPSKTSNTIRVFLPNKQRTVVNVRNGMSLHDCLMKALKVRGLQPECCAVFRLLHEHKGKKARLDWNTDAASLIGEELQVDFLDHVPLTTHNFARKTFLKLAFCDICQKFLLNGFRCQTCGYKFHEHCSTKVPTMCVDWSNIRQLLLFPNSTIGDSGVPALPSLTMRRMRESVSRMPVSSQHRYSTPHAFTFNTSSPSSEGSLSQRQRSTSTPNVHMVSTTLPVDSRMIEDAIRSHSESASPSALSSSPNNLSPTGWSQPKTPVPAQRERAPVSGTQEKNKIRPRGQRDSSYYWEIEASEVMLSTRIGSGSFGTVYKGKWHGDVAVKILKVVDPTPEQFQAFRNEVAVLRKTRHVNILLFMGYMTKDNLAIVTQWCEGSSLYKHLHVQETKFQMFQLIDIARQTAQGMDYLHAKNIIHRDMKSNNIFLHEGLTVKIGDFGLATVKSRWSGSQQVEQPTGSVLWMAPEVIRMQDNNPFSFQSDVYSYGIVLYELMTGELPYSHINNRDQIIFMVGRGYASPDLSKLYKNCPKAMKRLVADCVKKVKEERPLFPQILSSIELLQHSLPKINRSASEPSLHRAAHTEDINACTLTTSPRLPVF
# Assay procedure: Raf1 Kinase Cascade Assay
Assay metric: IC50 (nM)

For orientation, consider the following solved cases.
Structure notation | Target or system | IC50, nM
Cn1ccnc1Sc1ccc(Nc2c(C#N)cnc3cc(-c4csc(CN5CCOCC5)c4)ccc23)cc1Cl | Raf1 (c-Raf) (Homo sapiens) | 6
Cn1ccnc1Sc1ccc(Nc2c(C#N)cnc3cc(-c4ccc(CN5CCOCC5)cc4)ccc23)cc1Cl | Raf1 (c-Raf) (Homo sapiens) | 5.6
Cn1ccnc1Sc1ccc(Nc2c(C#N)cnc3cc(-c4ccc(CN5CCCCC5)o4)ccc23)cc1Cl | Raf1 (c-Raf) (Homo sapiens) | 20
Cn1ccnc1Sc1ccc(Nc2c(C#N)cnc3cc(-c4ccc(N5CCCCC5)nc4)ccc23)cc1Cl | Raf1 (c-Raf) (Homo sapiens) | 6
N#Cc1cnc2cc(-c3csc(CN4CCCCC4)c3)ccc2c1Nc1ccc(Sc2ccccc2)c(Cl)c1 | Raf1 (c-Raf) (Homo sapiens) | 50

P = Cn1ccnc1Sc1ccc(Nc2c(C#N)cnc3cc(-c4ccc(CN5CCNCC5)cc4)ccc23)cc1Cl
Q = Cn1ccnc1Sc1ccc(Nc2c(C#N)cnc3cc(-c4cnc(N5CCOCC5)nc4)ccc23)cc1Cl
# return whichever of P and Q has the smaller IC50 Record your answer as the label of the chosen record.
Q
